# system.under.test: H-PGDS (Homo sapiens)
# Construct: made in house; host or cells: Escherichia coli BL21 DE3
# Sequence (O60760 whole entry): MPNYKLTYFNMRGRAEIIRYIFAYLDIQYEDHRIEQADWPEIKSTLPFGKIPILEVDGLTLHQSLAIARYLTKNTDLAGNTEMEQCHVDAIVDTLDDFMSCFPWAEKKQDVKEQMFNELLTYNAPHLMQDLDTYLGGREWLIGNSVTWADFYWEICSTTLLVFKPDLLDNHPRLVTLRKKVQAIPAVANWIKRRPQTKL
# assay.text: H-PGDS catalyzed conjugation of GSH and CDNB, enzyme inhibition assay
# Type: biochemical
# assay.conditions: percent inhibition at 50 µM; Mean ± Standard Error of triplicate experiments; read-out: I[50]
value.type: inhibition at 50 µM (%)
Please respond with the number in % and leave the unit unwritten.

Some solved entries appear below for comparison.
- smiles.notation: "Cc1ccc(-c2ccc(C(=O)N[C@@H](Cc3ccccc3)C(N)=O)cn2)s1"
  inhibition at 50 µM / %: 95
- smiles.notation: "NC(=O)[C@H](Cc1ccccc1)NC(=O)c1ccc(-c2ccc(C=O)s2)nc1"
  inhibition at 50 µM / %: 83.4
- smiles.notation: "CS(=O)(=O)N1CC2(CCN(C(=O)c3ccc(-c4cccs4)nc3)CC2)c2ccccc21"
  inhibition at 50 µM / %: 90.4
- smiles.notation: "NC(=O)[C@H](Cc1ccccc1)NC(=O)c1ccc(-c2ccc(Cl)s2)nc1"
  inhibition at 50 µM / %: 89.4

GET /values?readout=inhibition at 50 µM&item= O=C(c1ccc(-c2cccs2)nc1)N1CCC2(CCc3ccccc32)CC1 91

Would you mind telling me what inhibition at 50 µM value was observed for Cc1ccsc1-c1ccc(C(=O)N[C@@H](Cc2ccccc2)C(N)=O)cn1 ? 91.6

Origin of the recorded values: patent EP2576536B1
